Consider compounds characterized by their MIC with Staphylococcus aureus.
Note: unit µM is implicit; provide only the numeric part.

Reference set (2 entries):
>  <compound>
CC[C@H](C)[C@H](NC(=O)[C@@H]1CCCN1C(=O)[C@@H](N)CCC(=O)O)C(=O)N1CCC[C@H]1C(=O)N[C@@H](CC(C)C)C(=O)N[C@@H](CCC(=O)O)C(=O)N[C@@H](CO)C(=O)N[C@@H](CCCN=C(N)N)C(=O)N[C@@H](CCC(=O)O)C(=O)N[C@@H](CCC(=O)O)C(=O)O [EPIPLESREE]

>  <MIC / µM>
2090

$$$$
>  <compound>
CC(C)C[C@H](NC(=O)[C@H](CCCCN)NC(=O)[C@H](Cc1ccccc1)NC(=O)[C@@H](NC(=O)[C@H](CCCCN)NC(=O)CNC(=O)[C@H](CC(C)C)NC(=O)[C@@H](N)Cc1ccccc1)C(C)C)C(=O)N[C@@H](C)C(=O)N[C@@H](CO)C(=O)N[C@@H](CCCCN)C(=O)N[C@H](C(=O)N[C@@H](Cc1ccccc1)C(=O)N[C@@H](CCCCN)C(=O)N[C@@H](C)C(=O)N[C@H](C(=O)N[C@@H](Cc1ccccc1)C(=O)NCC(=O)N[C@@H](CCCCN)C(=O)N[C@H](C(=O)O)C(C)C)C(C)C)C(C)C

>  <MIC / µM>
1.81

$$$$

Turning now to a further compound:
q: # assay system Staphylococcus aureus: give MIC of `CC(C)C[C@@H]1NC(=O)CNC(=O)[C@H](CO)NC(=O)[C@H](CC(C)C)NC(=O)CNC(=O)[C@@H](NC(=O)[C@H](CC(C)C)NC(=O)[C@@H](NC(=O)[C@H](CCCCN)NC(=O)[C@H](CCCCN)NC(=O)CNC(=O)[C@@H](NC(=O)CNC(=O)[C@H](CC(C)C)NC(=O)[C@@H](NC(=O)CNC(=O)[C@H](CO)NC(=O)[C@H](CC(C)C)NC(=O)[C@H](CC(C)C)NC(=O)CN)C(C)C)C(C)C)C(C)C)CSSC[C@@H](C(=O)O)NC1=O`
a: 4.75

---

// endpoint MIC / system Staphylococcus aureus

Examples from the recorded data:
>  <smiles.string>
CC(C)[C@H](NC(=O)[C@H](CCCCN)NC(=O)[C@H](Cc1c[nH]c2ccccc12)NC(=O)[C@H](CCCCN)NC(=O)[C@@H](NC(=O)[C@H](CCCCN)NC(=O)[C@H](Cc1c[nH]c2ccccc12)NC(=O)[C@H](CCCCN)NC(=O)[C@@H](NC(=O)[C@H](CCCCN)NC(=O)[C@@H](N)Cc1c[nH]c2ccccc12)C(C)C)C(C)C)C(=O)N[C@@H](CCCCN)C(N)=O

>  <MIC>
2 µM

$$$$
>  <smiles.string>
CC(C)[C@H](NC(=O)[C@H](CS)NC(=O)[C@@H](NC(=O)[C@H](CCCN=C(N)N)NC(=O)[C@H](CCCCN)NC(=O)CNC(=O)[C@H](CC(N)=O)NC(=O)[C@H](CS)NC(=O)[C@@H](N)Cc1ccc(O)cc1)C(C)C)C(=O)N[C@@H](CS)C(=O)N[C@@H](CCCN=C(N)N)C(N)=O

>  <MIC>
> 76.9 µM

$$$$

q: Provide MIC, tested on Staphylococcus aureus, for `CC[C@H](C)[C@H](NC(=O)[C@H](CC(C)C)NC(=O)[C@H](C)NC(=O)[C@H](CO)NC(=O)[C@H](CCCN=C(N)N)NC(=O)[C@@H](N)CO)C(=O)N[C@H](C(=O)N[C@@H](Cc1cnc[nH]1)C(=O)N[C@@H](CCC(N)=O)C(=O)N[C@@H](CCCN=C(N)N)C(=O)N[C@@H](CC(C)C)C(=O)N[C@@H](Cc1ccccc1)C(N)=O)C(C)C` .
a: > 280 µM

---

Quick record of MIC values for Staphylococcus aureus.
Express it in µM; write the number only.

See these solved cases before continuing.
>  <smiles.string>
CC[C@H](C)[C@H](NC(=O)[C@H](Cc1c[nH]c2ccccc12)NC(=O)[C@H](CCCCN)NC(=O)[C@H](CO)NC(=O)[C@H](CC(C)C)NC(=O)[C@H](Cc1ccccc1)NC(=O)[C@@H](NC(=O)[C@H](CCCCN)NC(=O)[C@H](CC(C)C)NC(=O)[C@H](CC(C)C)NC(=O)[C@H](CCCCN)NC(=O)[C@@H]1CCCN1)[C@@H](C)O)C(=O)NCC(=O)O

>  <measured.number>
3.27

$$$$
>  <smiles.string>
NCCCC[C@H](NC(=O)[C@H](Cc1c[nH]c2ccccc12)NC(=O)[C@H](Cc1c[nH]c2ccccc12)NC(=O)[C@H](CCCCN)NC(=O)[C@H](Cc1c[nH]c2ccccc12)NC(=O)[C@H](Cc1c[nH]c2ccccc12)NC(=O)[C@H](CCCN=C(N)N)NC(=O)[C@H](Cc1c[nH]c2ccccc12)NC(=O)[C@H](Cc1c[nH]c2ccccc12)NC(=O)[C@H](CCCN=C(N)N)NC(=O)[C@H](CCCCN)NC(=O)[C@@H](N)CCCN=C(N)N)C(=O)N[C@@H](CCCN=C(N)N)C(N)=O

>  <measured.number>
5.28

$$$$
>  <smiles.string>
CC(C)C[C@H](NC(=O)[C@H](CO)NC(=O)[C@H](Cc1cnc[nH]1)NC(=O)[C@H](CO)NC(=O)[C@H](CC(C)C)NC(=O)[C@H](CC(C)C)NC(=O)[C@@H](N)CCCCN)C(=O)N[C@@H](CC(C)C)C(=O)N[C@H](C(=O)N[C@H](C(=O)N[C@@H](CC(C)C)C(=O)N[C@@H](C)C(=O)O)[C@@H](C)O)C(C)C

>  <measured.number>
4.83

$$$$

Please examine the following record next.
q: Provide measured MIC on Staphylococcus aureus for `CC(C)C[C@H](NC(=O)[C@H](CCCCN)NC(=O)[C@H](Cc1ccccc1)NC(=O)[C@@H](NC(=O)[C@H](CCCCN)NC(=O)[C@H](CCCCN)NC(=O)[C@H](CC(C)C)NC(=O)[C@@H](N)Cc1ccccc1)C(C)C)C(=O)N[C@@H](C)C(=O)N[C@@H](CO)C(=O)N[C@@H](CCCCN)C(=O)N[C@H](C(=O)N[C@@H](Cc1ccccc1)C(=O)N1CCC[C@H]1C(=O)N[C@@H](C)C(=O)N[C@H](C(=O)N[C@@H](Cc1ccccc1)C(=O)NCC(=O)N[C@@H](CCCCN)C(=O)N[C@H](C(=O)O)C(C)C)C(C)C)C(C)C` please.
a: 28.4

---

# Tested on: Staphylococcus aureus ATCC 25923
# assay.procedure: ≥ marks a high value that may be exact or a test limit, other limits are often not marked, values filed in µg/mL are converted to µM
Items are presented alongside their recorded MIC.
Just the number in µM, nothing appended.

>  <smiles.string>
CC[C@H](C)[C@H](N)C(=O)N[C@@H](Cc1c[nH]c2ccccc12)C(=O)N[C@@H](Cc1c[nH]c2ccccc12)C(=O)N[C@@H](CCCCN)C(=O)N[C@@H](Cc1c[nH]c2ccccc12)C(=O)N[C@@H](CCCN=C(N)N)C(=O)N[C@@H](CCCN=C(N)N)C(=O)N[C@@H](Cc1c[nH]c2ccccc12)C(=O)N[C@H](C(=O)O)C(C)C

>  <assayed.system>
Staphylococcus aureus ATCC 25923

>  <unit.name>
µM

>  <MIC>
1.48

$$$$

Continue with the next molecule.
q: Name the recorded MIC of `CC[C@H](C)[C@H](NC(=O)[C@H](Cc1c[nH]c2ccccc12)NC(=O)[C@H](CCCCN)NC(=O)[C@H](Cc1c[nH]c2ccccc12)NC(=O)[C@@H](NC(=O)[C@H](CCCCN)NC(=O)CNC(=O)[C@@H](NC(=O)[C@H](CCCCN)NC(=O)[C@H](CCCCN)NC(=O)[C@H](Cc1c[nH]c2ccccc12)NC(=O)[C@@H](N)CCCN=C(N)N)[C@@H](C)CC)C(C)C)C(N)=O` , assay system Staphylococcus aureus ATCC 25923.
a: 32

---

# Test system: Staphylococcus aureus ATCC 25923
readout.label: MIC (µM)
Answer format: numeric, µM implied, no suffix.

q: Tell me MIC of `CC[C@H](C)[C@H](NC(=O)[C@H](CCCCN)NC(=O)[C@@H](NC(=O)[C@@H](NC(=O)[C@H](CCCCN)NC(=O)CNC(=O)[C@H](CC(C)C)NC(=O)[C@@H](NC(=O)[C@H](CO)NC(=O)CNC(=O)[C@H](C)NC(=O)[C@H](CCCCN)NC(=O)[C@H](CO)NC(=O)[C@H](C)NC(=O)[C@H](CCSC)NC(=O)CN)C(C)C)[C@@H](C)CC)[C@@H](C)O)C(=O)N[C@@H](C)C(=O)N[C@@H](CC(C)C)C(=O)NCC(=O)N[C@@H](C)C(=O)N[C@@H](CC(C)C)C(N)=O` when tested on Staphylococcus aureus ATCC 25923.
a: 100
